Test system: Salmonella typhimurium
Assay: Antibacterial activity against Salmonella enterica subsp. enterica serovar Typhimurium MTCC 98 after overnight incubation by broth dilution method
Format: functional
One threshold, 100 µg/mL, splits the recorded MIC99 values: lower ones are Yes, equal or higher ones are No.

Field: example entries. Status: answers known.
Compound	Subject of test	Classification
CCc1ccc(C2C(Cl)C(=O)N2NCc2nc3ccccc3c(=O)n2NC(=O)c2ccncc2)cc1 (stereo not given)	Salmonella typhimurium	No
O=C(O)c1cn(C2CC2)c2cc(N3CCNCC3)c(F)cc2c1=O [CIPROFLOXACIN]	Salmonella typhimurium	Yes

Is MIC99 strictly under 100 µg/mL for the entry O=C(Nn1c(CNN2C(=O)C(Cl)C2c2ccccc2)nc2ccccc2c1=O)c1ccncc1 (stereo not given) ? No

Is MIC99 strictly under 100 µg/mL for the entry COc1ccc(C2C(Cl)C(=O)N2NCc2nc3ccccc3c(=O)n2NC(=O)c2ccncc2)cc1 (stereo not given) ? No

---

This section presents compounds with their documented MIC99 values.
Tested on: Pseudomonas aeruginosa
Assay: Antibacterial activity against Pseudomonas aeruginosa MTCC 1688 after overnight incubation by broth dilution method
Assay type: functional
Answer format: numeric, µg/mL implied, no suffix.

Compound	Subject of test	Unit abbreviation	MIC99
O=C(Nn1c(CNN2C(=O)C(Cl)C2c2ccc(O)cc2)nc2ccccc2c1=O)c1ccncc1 (stereo not given)	Pseudomonas aeruginosa	µg/mL	250
O=C(Nn1c(CNN2C(=O)C(Cl)C2c2ccc([N+](=O)[O-])cc2)nc2ccccc2c1=O)c1ccncc1 (stereo not given)	Pseudomonas aeruginosa	µg/mL	150
CCc1ccc(C2C(Cl)C(=O)N2NCc2nc3ccccc3c(=O)n2NC(=O)c2ccncc2)cc1 (stereo not given)	Pseudomonas aeruginosa	µg/mL	500
O=C(Nn1c(CNN2C(=O)C(Cl)C2c2ccc(Br)cc2)nc2ccccc2c1=O)c1ccncc1 (stereo not given)	Pseudomonas aeruginosa	µg/mL	200
COc1ccc(C2C(Cl)C(=O)N2NCc2nc3ccccc3c(=O)n2NC(=O)c2ccncc2)cc1 (stereo not given)	Pseudomonas aeruginosa	µg/mL	500
CCn1cc(C(=O)O)c(=O)c2cc(F)c(N3CCNCC3)cc21	Pseudomonas aeruginosa	µg/mL	10
O=C(Nn1c(CNN2C(=O)C(Cl)C2c2ccccc2[N+](=O)[O-])nc2ccccc2c1=O)c1ccncc1 (stereo not given)	Pseudomonas aeruginosa	µg/mL	200
O=C(Nn1c(CNN2C(=O)C(Cl)C2c2cccc([N+](=O)[O-])c2)nc2ccccc2c1=O)c1ccncc1 (stereo not given)	Pseudomonas aeruginosa	µg/mL	250
O=C(Nn1c(CNN2C(=O)C(Cl)C2c2ccc(Cl)cc2)nc2ccccc2c1=O)c1ccncc1 (stereo not given)	Pseudomonas aeruginosa	µg/mL	100
O=C(Nn1c(CNN2C(=O)C(Cl)C2c2ccccc2Cl)nc2ccccc2c1=O)c1ccncc1 (stereo not given)	Pseudomonas aeruginosa	µg/mL	250

Find MIC99 (Pseudomonas aeruginosa) for the entry CC1(C)S[C@@H]2[C@H](NC(=O)[C@H](N)c3ccccc3)C(=O)N2[C@H]1C(=O)O 100

---

System: Staphylococcus aureus
Assay: Antibacterial activity against Staphylococcus aureus MTCC 96 after overnight incubation by broth dilution method
Assay type: functional
Measured parameter: MIC99

Find MIC99 (Staphylococcus aureus) for the entry CCc1ccc(C2C(Cl)C(=O)N2NCc2nc3ccccc3c(=O)n2NC(=O)c2ccncc2)cc1 (stereo not drawn) 200 µg/mL

Find MIC99 (Staphylococcus aureus) for the entry O=C(Nn1c(CNN2C(=O)C(Cl)C2c2ccccc2[N+](=O)[O-])nc2ccccc2c1=O)c1ccncc1 (stereo not drawn) 200 µg/mL

Find MIC99 (Staphylococcus aureus) for the entry O=C(Nn1c(CNN2C(=O)C(Cl)C2c2ccc([N+](=O)[O-])cc2)nc2ccccc2c1=O)c1ccncc1 (stereo not drawn) 100 µg/mL

Find MIC99 (Staphylococcus aureus) for the entry COc1ccc(C2C(Cl)C(=O)N2NCc2nc3ccccc3c(=O)n2NC(=O)c2ccncc2)cc1 (stereo not drawn) 125 µg/mL

Find MIC99 (Staphylococcus aureus) for the entry O=C(Nn1c(CNN2C(=O)C(Cl)C2c2cccc([N+](=O)[O-])c2)nc2ccccc2c1=O)c1ccncc1 (stereo not drawn) 500 µg/mL

Find MIC99 (Staphylococcus aureus) for the entry O=C(Nn1c(CNN2C(=O)C(Cl)C2c2ccc(Br)cc2)nc2ccccc2c1=O)c1ccncc1 (stereo not drawn) 200 µg/mL

Find MIC99 (Staphylococcus aureus) for the entry O=C(Nn1c(CNN2C(=O)C(Cl)C2c2ccccc2O)nc2ccccc2c1=O)c1ccncc1 (stereo not drawn) 250 µg/mL

Find MIC99 (Staphylococcus aureus) for the entry O=C(Nn1c(CNN2C(=O)C(Cl)C2c2ccc(Cl)cc2)nc2ccccc2c1=O)c1ccncc1 (stereo not drawn) 500 µg/mL

Attribution: ChEMBL document CHEMBL3045851
